Species: Rattus norvegicus
protocol: Open TG-GATES - Regimen: Single
Assay type: toxicity, organism-based, Sprague-Dawley
Set-up: regimen Single, gender Male, age 6 weeks
stated_conditions: in vivo, po, 0 mg/kg, 24 h, tissue Plasma, route gavage, dose level Control
Binary label based on K with cut-off 4 meq/L: below gives met, not below gives not met.

Reference set, count: 4
compound	class_assignment
COc1ccc(Cc2nccc3cc(OC)c(OC)cc23)cc1OC	not met
CCc1cc(C(N)=S)ccn1 [ETHIONAMIDE]	not met
O=C(O)c1cn(C2CC2)c2cc(N3CCNCC3)c(F)cc2c1=O	not met
Clc1ccccc1CN1CCc2sccc2C1	met

Next, consider the following compound.
Take the compound "COc1cc2c(c3oc(=O)c4c(c13)CCC4=O)[C@@H]1C=CO[C@@H]1O2" and say whether its K is less than 4 meq/L. not met

====

Organism: Rattus norvegicus
protocol: Open TG-GATES - Regimen: Single
Format: toxicity, organism-based, Sprague-Dawley
Design: regimen Single, gender Male, age 6 weeks
stated_conditions: in vivo, po, 0 mg/kg, 6 h, tissue Plasma, route gavage, dose level Control
GLC for assorted compounds
Use mg/dL as the unit, but write only the number.

Record excerpt, results attached:
compound	number
O=C(O)c1cn(C2CC2)c2cc(N3CCNCC3)c(F)cc2c1=O	186.4
CSc1ccc2c(c1)N(CCC1CCCCN1C)c1ccccc1S2 (centres undefined)	189
Cn1c(=O)c2[nH]cnc2n(C)c1=O.O	183.8

Attention now turns to another entry.
# input compound: "CC(=O)Oc1ccccc1C(=O)O" ; wanted: its GLC 185.8

====

Known MCH of a selection of compounds
Species: Rattus norvegicus
protocol: Open TG-GATES - Regimen: Single
Assay type: toxicity, organism-based, Sprague-Dawley
Parameters: regimen Single, gender Male, age 6 weeks
stated_conditions: in vivo, po, 0 mg/kg, 9 h, tissue Blood, route gavage, dose level Control
# value in pg; strip the unit string

compound	value_kind	number
C[C@H](CS)C(=O)N1CCC[C@H]1C(=O)O [CAPTOPRIL]	MCH	21.2
NC(=O)N1c2ccccc2C=Cc2ccccc21 [CARBAMAZEPINE]	MCH	20.9
COc1ccc(Cc2nccc3cc(OC)c(OC)cc23)cc1OC [PAPAVERINE]	MCH	20.3
CSc1ccc2c(c1)N(CCC1CCCCN1C)c1ccccc1S2 (stereo not given) [THIORIDAZINE]	MCH	21.6

// switching to the query compound
Requested field: MCH. Item: Cn1c(=O)c2[nH]cnc2n(C)c1=O.O [THEOPHYLLINE] 20.5

====

Species on record: Rattus norvegicus
protocol: Open TG-GATES - Regimen: Single
Format: toxicity, organism-based, Sprague-Dawley
Set-up: regimen Single, gender Male, age 6 weeks
stated_conditions: in vivo, po, 0 mg/kg, 6 h, tissue Plasma, route gavage, dose level Control
value_kind: BUN
Number first, unit second: that is the form wanted.

In the examples that follow, each entry is paired with its recorded BUN.
compound	value_kind	result
COc1ccc(Cc2nccc3cc(OC)c(OC)cc23)cc1OC	BUN	10 mg/dL
NC(=O)N1c2ccccc2C=Cc2ccccc21 [CARBAMAZEPINE]	BUN	8.8 mg/dL
CCc1cc(C(N)=S)ccn1 [ETHIONAMIDE]	BUN	12 mg/dL
CC(=O)Oc1ccccc1C(=O)O	BUN	9 mg/dL
Cn1c(=O)c2[nH]cnc2n(C)c1=O.O	BUN	10.8 mg/dL
O=C(O)c1cn(C2CC2)c2cc(N3CCNCC3)c(F)cc2c1=O	BUN	10.4 mg/dL

Now examine the next entry.
# get_value(readout='BUN', item= "CN(C)CCC=C1c2ccccc2CCc2ccccc21" ) 8.6 mg/dL
